- TARGET ENTITY: human TRPM8 channel (Homo sapiens, UniProt Q7Z2W7)
- Construct: The open reading frame of human cDNA TRPM8 from position 41-3355bp was amplified
- Sequence (Q7Z2W7 whole entry): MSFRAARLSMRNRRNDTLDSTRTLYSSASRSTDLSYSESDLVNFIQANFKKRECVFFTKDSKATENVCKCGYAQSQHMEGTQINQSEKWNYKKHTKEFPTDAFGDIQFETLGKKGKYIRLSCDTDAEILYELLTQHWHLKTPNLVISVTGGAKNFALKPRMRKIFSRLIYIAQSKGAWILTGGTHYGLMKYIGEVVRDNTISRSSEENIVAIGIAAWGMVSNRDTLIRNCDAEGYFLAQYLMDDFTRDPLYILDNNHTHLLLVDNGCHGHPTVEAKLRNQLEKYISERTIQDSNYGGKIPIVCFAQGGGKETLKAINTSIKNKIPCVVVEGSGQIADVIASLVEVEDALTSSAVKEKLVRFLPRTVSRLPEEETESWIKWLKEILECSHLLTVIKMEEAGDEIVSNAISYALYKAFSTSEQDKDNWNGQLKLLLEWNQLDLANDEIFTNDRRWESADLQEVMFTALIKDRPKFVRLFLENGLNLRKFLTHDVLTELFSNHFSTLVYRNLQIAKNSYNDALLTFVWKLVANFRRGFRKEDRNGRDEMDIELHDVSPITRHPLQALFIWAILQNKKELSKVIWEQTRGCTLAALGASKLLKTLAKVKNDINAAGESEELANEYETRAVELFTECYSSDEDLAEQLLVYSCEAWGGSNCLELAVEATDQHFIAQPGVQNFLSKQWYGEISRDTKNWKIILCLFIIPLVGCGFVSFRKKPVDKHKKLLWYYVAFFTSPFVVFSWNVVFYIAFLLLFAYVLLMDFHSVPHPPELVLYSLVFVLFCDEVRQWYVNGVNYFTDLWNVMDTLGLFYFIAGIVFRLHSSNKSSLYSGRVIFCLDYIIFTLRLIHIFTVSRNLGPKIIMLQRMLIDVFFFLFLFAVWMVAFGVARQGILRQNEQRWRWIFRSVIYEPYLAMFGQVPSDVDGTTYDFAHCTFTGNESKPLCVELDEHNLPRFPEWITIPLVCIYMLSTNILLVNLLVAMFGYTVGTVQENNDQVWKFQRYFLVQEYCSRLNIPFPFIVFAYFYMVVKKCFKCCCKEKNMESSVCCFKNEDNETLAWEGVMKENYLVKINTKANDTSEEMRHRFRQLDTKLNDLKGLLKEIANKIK
- TEST: Intracellular calcium (fluo-4 fluorescence) assay in HEK 293 cells stably expressing human TRPM8
- RECORDED CONDITIONS: fluo-4 calcium fluorescence, concentration producing one-half of maximal response (DFmax)
ASSAY METRIC: EC50
A bare number is not enough; add the unit after it.

*Q* Answer with the recorded EC50 of `CCCn1cnc2sc3c(c2c1=N)CCCC3` only.
*A* 6.5 µM
